Data origin: patent US11365192B2

- Tested on: human CYP4A11 (Homo sapiens (Human))
- Sequence (Q02928 5-519): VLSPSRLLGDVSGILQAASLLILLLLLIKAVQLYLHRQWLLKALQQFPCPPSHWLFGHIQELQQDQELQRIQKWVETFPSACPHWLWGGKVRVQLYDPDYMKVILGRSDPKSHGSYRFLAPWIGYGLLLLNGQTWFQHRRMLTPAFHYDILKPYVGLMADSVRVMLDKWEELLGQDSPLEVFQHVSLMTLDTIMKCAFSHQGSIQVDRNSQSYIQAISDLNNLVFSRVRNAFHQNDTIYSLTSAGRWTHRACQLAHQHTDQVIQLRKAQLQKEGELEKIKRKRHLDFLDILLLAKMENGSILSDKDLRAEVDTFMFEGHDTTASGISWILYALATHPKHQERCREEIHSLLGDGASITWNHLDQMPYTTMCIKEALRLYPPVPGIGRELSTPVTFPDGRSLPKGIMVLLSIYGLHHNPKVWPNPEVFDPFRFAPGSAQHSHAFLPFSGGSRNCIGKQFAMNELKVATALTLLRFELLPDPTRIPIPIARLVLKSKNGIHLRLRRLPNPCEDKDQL
- Assay notes: Inhibition test against 20-HETE producing enzyme CYP4A11 (luciferine derivative, luminescence)
- Type: biochemical
- Assay setup: E. coli membrane fraction expressing human CYP4A11, 60 μM luciferine derivative, room temperature 60 minutes
pIC50: −log10 of the molar value.
Classify as follows. Reported pIC50 greater than or equal to 7: Condition met. Reported pIC50 below: Condition not met.

- Compound: "O=C(O)Cc1cccc(COc2ccc(-c3cn[nH]c3)nc2)c1 [Example 38-2]"
  Tested on: "human CYP4A11 (Homo sapiens (Human))"
  Label value: "Condition met"
- Compound: "Oc1ccccc1CCOc1ccc(-c2ccn[nH]2)nc1 [Example 13-2]"
  Tested on: "human CYP4A11 (Homo sapiens (Human))"
  Label value: "Condition not met"
- Compound: "CC(C)(CCCOc1ccc(-c2ccn[nH]2)nc1)CC(=O)O [Example 1-60]"
  Tested on: "human CYP4A11 (Homo sapiens (Human))"
  Label value: "Condition met"
- Compound: "O=C(O)C1(c2cccc(COc3ccc(-c4ccn[nH]4)nc3)c2)CC1 [Example 21-3]"
  Tested on: "human CYP4A11 (Homo sapiens (Human))"
  Label value: "Condition met"
- Compound: "O=C(O)CCCCc1ccccc1COc1ccc(-c2ccn[nH]2)nc1 [Example 1-12]"
  Tested on: "human CYP4A11 (Homo sapiens (Human))"
  Label value: "Condition not met"
- Compound: "O=C(O)c1ccc2c(c1)CC(COc1ccc(-c3ccn[nH]3)nc1)CC2 (stereo not drawn) [Example 5-1]"
  Tested on: "human CYP4A11 (Homo sapiens (Human))"
  Label value: "Condition met"
- Compound: "O=C(O)C1CC1CCCOc1ccc(-c2ccn[nH]2)nc1 (stereo not drawn) [Example 1-27]"
  Tested on: "human CYP4A11 (Homo sapiens (Human))"
  Label value: "Condition met"

====

- Assay notes: Evaluation test for in vivo stability (half-life in plasma after intravenous administration to rats)
- Set-up: species or system rats (Sprague-Dawley)
- Assay setup: rats (SD, male), 0.5 mg/kg, half-life in plasma from CL and Vdss

- Molecule: "O=C(O)C1(CCCCCCCCOc2ccc(-c3ccn[nH]3)nc2)COC1"
  t1/2eff (h): 1.4
- Molecule: "O=C(O)C1(OCCCCCCCOc2ccc(-c3ccn[nH]3)nc2)CCC1"
  t1/2eff (h): 2.4
- Molecule: "CC(C)(OCCCCCCCOc1ccc(-c2ccn[nH]2)nc1)C(=O)O"
  t1/2eff (h): 2.4
- Molecule: "O=C(O)[C@H]1C[C@@H]1c1cccc(CCOc2ccc(-c3ccn[nH]3)nc2)c1F"
  t1/2eff (h): 3.5
- Molecule: "O=C(O)C1CC1c1cccc(COc2ccc(-c3ccn[nH]3)nc2)c1F (single isomer, unassigned)"
  t1/2eff (h): 3.6

====

Measured log10 of IC50, listed per entry.
- Tested on: UniProt:P78329
- Sequence (P78329 5-520): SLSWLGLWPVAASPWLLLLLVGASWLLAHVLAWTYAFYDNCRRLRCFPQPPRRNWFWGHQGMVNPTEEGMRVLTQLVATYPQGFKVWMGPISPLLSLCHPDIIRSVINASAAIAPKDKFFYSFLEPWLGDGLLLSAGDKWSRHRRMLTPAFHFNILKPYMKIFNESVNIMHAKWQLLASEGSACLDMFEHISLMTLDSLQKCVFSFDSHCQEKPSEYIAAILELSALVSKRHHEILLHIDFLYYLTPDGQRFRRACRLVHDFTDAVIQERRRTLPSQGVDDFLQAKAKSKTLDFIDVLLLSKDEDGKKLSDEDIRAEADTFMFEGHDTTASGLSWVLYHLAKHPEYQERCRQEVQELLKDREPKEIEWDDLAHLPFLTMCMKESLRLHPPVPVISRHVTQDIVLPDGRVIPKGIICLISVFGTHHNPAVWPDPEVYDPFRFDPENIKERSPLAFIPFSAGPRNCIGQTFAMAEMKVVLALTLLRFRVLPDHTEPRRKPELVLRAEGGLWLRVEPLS
- Assay notes: Inhibition test against 20-HETE producing enzyme CYP4F2 (luciferine derivative, luminescence)
- Format: biochemical
- Assay setup: human CYP4F2, luciferine derivative, luminescence
Readout: log10 of IC50 (log10 of the value in nM)

- Compound: "C[C@@H](CO)NC(=O)CCc1cccc(COc2ccc(-c3ccn[nH]3)nc2)c1"
  log10 of IC50: 1.80
- Compound: "O=C(O)C1CCc2ccc(COc3ccc(-c4[nH]ncc4Cl)nc3)cc2O1 (single isomer, unassigned) [Example 75-7]"
  log10 of IC50: 1.30
- Compound: "CC(C)(CCNC(=O)c1cncc(COc2ccc(-c3ccn[nH]3)nc2)c1)C(=O)O"
  log10 of IC50: 3.00
- Compound: "O=C(O)C[C@H](NC(=O)c1cccc(COc2ccc(-c3ccn[nH]3)nc2)c1)c1ccccc1"
  log10 of IC50: 3.46
- Compound: "CN(CCO)C(=O)CCc1cccc(COc2ccc(-c3ccn[nH]3)nc2)c1"
  log10 of IC50: 2.23
- Compound: "O=C(NCC1(C(=O)O)CCOCC1)c1cccc(COc2ccc(-c3ccn[nH]3)nc2)c1"
  log10 of IC50: 3.65
- Compound: "O=C(O)C1CCc2c(COc3ccc(-c4ccn[nH]4)nc3)cccc2O1 (stereo not drawn)"
  log10 of IC50: 4.46
- Compound: "C[C@H](CO)NC(=O)CCc1cccc(COc2ccc(-c3ccn[nH]3)nc2)c1"
  log10 of IC50: 2.08
- Compound: "O=C(O)[C@H]1CCc2ccc(COc3ccc(-c4ccn[nH]4)nc3)cc2C1"
  log10 of IC50: 2.30
- Compound: "O=C(CCc1cccc(COc2cnc(-c3ccn[nH]3)c(F)c2)c1)N1CC(O)C1"
  log10 of IC50: 1.67
- Compound: "CN(C(=O)Cc1cccc(COc2ccc(-c3ccn[nH]3)nc2)c1)S(C)(=O)=O"
  log10 of IC50: 2.46
- Compound: "O=C(O)c1nc2c(o1)CN(C(=O)c1cccc(COc3ccc(-c4ccn[nH]4)nc3)c1)C2"
  log10 of IC50: 1.53
